Quick reference for z-score among some compounds
test: blockers of DNA damage checkpoint Chk1 activation – imaging, HeLa, hydroxyurea, phospho-Chk1 nuclear intensity, primary screen (AID 1187); settings: hydroxyurea-induced phospho-Chk1 immunofluorescence imaging, higher = more signal; further: test concentration not given here
readout: z-score

{"columns": ["compound", "readout", "value-reported"],
 "data": [
  ["O=C(C=C(CC(O)c1cccc(Cl)c1)OCCF)OCCF (centres undefined)", "z-score", -0.48],
  ["CN(C)C(=O)[C@@]1(CCC(=O)OC(C)(C)C)N=C(c2ccc(OCCCO)cc2)O[C@H]1c1ccccc1N=[N+]=[N-]", "z-score", -0.222],
  ["COC(=O)[C@@]1(Cc2ccc(OC)cc2)[C@H]2c3cc(C(=O)N(C)C)n(CCF)c3C[C@H]2CN1C(=O)c1ccccc1", "z-score", -0.241],
  ["CCCN1C(=O)[C@@]2(Cc3ccccc3)N=C(c3ccc(OCCCO)cc3)O[C@H]2c2ccccc21", "z-score", 0.555],
  ["O=C1O[C@H](c2ccccc2)[C@H](c2ccccc2)N2[C@H]1[C@@H](C(=O)N1CCN(c3ncccn3)CC1)[C@]1(C(=O)Nc3ccc(C#CCCO)cc31)[C@H]2c1ccc(OCCO)cc1", "z-score", 0.923],
  ["C=CC[C@@]1(C(=O)NCCN2CCOCC2)N=C(c2ccc(OCCCO)cc2)O[C@@H]1c1ccccc1", "z-score", 0.0737],
  ["COC(=O)[C@@]1(Cc2ccccc2)[C@H]2c3cc(C(=O)N4CCCC4)n(Cc4ccccc4)c3C[C@H]2CN1C(=O)c1ccccc1", "z-score", 0.167],
  ["CCOC(=O)C1=CC[C@@H](c2cccc(Br)c2)N(S(=O)(=O)c2ccc(C)cc2)[C@H]1c1ccc([N+](=O)[O-])cc1", "z-score", 0.508],
  ["C=CC[C@@]1(C(=O)NCC(O)CO)N=C(c2ccc(OCCCO)cc2)O[C@@H]1c1ccccc1 (some centres undefined)", "z-score", -0.244],
  ["O=C(O)[C@]1(CCS(=O)(=O)c2ccccc2)N=C(c2ccc(OCCCO)cc2)O[C@@H]1c1ccccc1", "z-score", 0.06],
  ["C=CCOC(=O)[C@@H]1[C@H]2C(=O)O[C@H](c3ccccc3)[C@H](c3ccccc3)N2[C@H](c2ccc(OCCOC(=O)[C@@H]3C[C@@H]4C(=O)N5CCC[C@H]5C(=O)N4[C@@H]3c3cccc(OCCO)c3)cc2)[C@@]12C(=O)Nc1ccc(I)cc12", "z-score", 0.318],
  ["C=CCC(OC(C)=O)[C@@H]1[C@@H](N(Cc2cccc3ccccc23)C(=O)c2ccc(C)cc2)c2cc(OCCCO)ccc2N1C(=O)c1ccc2ccccc2c1 (some centres undefined)", "z-score", -0.761],
  ["COC(=O)[C@]1(Cc2ccccc2CN=[N+]=[N-])N=C(c2ccc(OCCCO)cc2)O[C@@H]1c1ccccc1CN=[N+]=[N-]", "z-score", -0.601],
  ["NC(=O)[C@H]1[C@@H]2C(=O)O[C@@H](c3ccccc3)[C@@H](c3ccccc3)N2[C@@H](c2ccc(O)cc2)[C@]12C(=O)Nc1ccc(C#CC3(O)CCCCCC3)cc12", "z-score", 0.301]
]}

====

test: plasmodial surface anion channel blockers, osmotic lysis – cell-based, P. falciparum Indochina, OD700, 2 h, primary screen (AID 1155);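 further: lysis reports solute entry through the parasite surface anion channel PSAC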; details: P. falciparum Indochina infected erythrocytes, called active from +8 up or from −8 down
Activity calls are given as the source filed them.
Labels: active, inactive

{"columns": ["compound", "label-value"],
 "data": [
  ["COCC1=C([C@H](O)CCc2ccccc2)[C@H](CO)[C@@H]2C(=O)N(C)C(=O)[C@@H]2C1", "inactive"],
  ["[N-]=[N+]=NCc1ccccc1C[C@]1(C(=O)NCCN2CCOCC2)COC(c2ccc(OCCCO)cc2)=N1", "active"],
  ["COCCCNC(=O)[C@]1(CCS(=O)(=O)c2ccccc2)N=C(c2ccc(OCCCO)cc2)O[C@@H]1c1ccccc1", "active"],
  ["CN(C)CCCCCCNC(=O)[C@@H]1C[C@@H]2C(=O)NCC(=O)N2[C@@H]1c1ccc(O)cc1", "inactive"],
  ["CN(C)CCCC[C@@H]1NC(=O)[C@H]2C[C@@H](C(=O)NCCCCCCNC(=O)CS)[C@@H](c3ccc(O)cc3)N2C1=O", "inactive"],
  ["COCCOC(=O)N1C(=O)[C@@]2(c3cc(C#CC4(O)CCCCCC4)ccc31)[C@H](C(=O)N1CCN(c3ncccn3)CC1)[C@H]1C(=O)O[C@H](c3ccccc3)[C@H](c3ccccc3)N1[C@@H]2c1ccc(O)cc1", "inactive"],
  ["CC(C)CCC[C@@H](C)[C@H]1CC[C@@]2(C)C3=C(CC[C@]12C)[C@@]1(C)CC[C@H](OC(=O)c2ccc(N)cc2)C(C)(C)C1CC3 (some centres not stated)", "inactive"]
]}

Data origin, for the record: PubChem BioAssay
